Would you mind telling me the reported Biodistribution: Lrg Int. of each entry?
- Tested on: PSMA + PC-3 PiP and PSMA − PC-3 flu tumor xenografts
- CONDITION_INFO: 1 H post-injection
Output spec: scalar in % ID/g, unitless text.

Tell me the measured Biodistribution: Lrg Int. of O=C(O)CC[C@H](NC(=O)N[C@@H](CSCc1ccc([125I])cc1)C(=O)O)C(=O)O [[^125I] labeled DCIBC] , please.
1.2

Lookup N=C(N)NCc1ccc(C(=O)NCCCCC(NC(=O)CCCCCCC(=O)NCCCC[C@H](NC(=O)N[C@@H](CCC(=O)O)C(=O)O)C(=O)O)C(=O)O)cc1[131I] (some centres unmarked) [[^131I] labeled PSMA-904]
0.50

Lookup N=C(N)NCc1ccc(C(=O)NCCCCC(NC(=O)CCCCCCC(=O)NCCCC[C@H](NC(=O)N[C@@H](CCC(=O)O)C(=O)O)C(=O)O)C(=O)O)cc1[211At] (some centres unmarked) [[^211At] labeled PSMA-904]
0.75

Lookup O=C(O)CC[C@H](NC(=O)N[C@@H](CCC(=O)NCCc1ccc([211At])cc1)C(=O)O)C(=O)O [[^211At]HS-549]
1.16

Lookup O=C(O)CC[C@H](NC(=O)N[C@@H](CCC(=O)NCCc1ccc([131I])cc1)C(=O)O)C(=O)O [[^131I]HS-549]
0.52

* * *

- Tested on: PSMA + PC-3 PiP and PSMA − PC-3 flu tumor xenografts
- CONDITION_INFO: 1 H post-injection
# binarize Biodistribution: muscle: threshold 0.7 % ID/g inclusive, high side t, low side f

Reported Biodistribution: muscle at or above 0.7 % ID/g? N=C(N)NCc1ccc(C(=O)NCCCCC(NC(=O)CCCCCCC(=O)NCCCC[C@H](NC(=O)N[C@@H](CCC(=O)O)C(=O)O)C(=O)O)C(=O)O)cc1[211At] (some centres unmarked) [[^211At] labeled PSMA-904]
f

Lookup O=C(O)CC[C@H](NC(=O)N[C@@H](CCC(=O)NCCc1ccc([131I])cc1)C(=O)O)C(=O)O [[^131I]HS-549]
t

Lookup N=C(N)NCc1ccc(C(=O)NCCCCC(NC(=O)CCCCCCC(=O)NCCCC[C@H](NC(=O)N[C@@H](CCC(=O)O)C(=O)O)C(=O)O)C(=O)O)cc1[131I] (some centres unmarked) [[^131I] labeled PSMA-904]
f

Lookup O=C(O)CC[C@H](NC(=O)NC(CCCCNC(=O)c1ccc([211At])cc1)C(=O)O)C(=O)O (some centres unmarked) [[^211At]YC-I-27]
t

Lookup O=C(O)CC[C@H](NC(=O)N[C@@H](CSCc1ccc([125I])cc1)C(=O)O)C(=O)O [[^125I] labeled DCIBC]
t

Lookup O=C(O)CC[C@H](NC(=O)N[C@@H](CCCCNC(=O)c1ccc([131I])cc1)C(=O)O)C(=O)O [[^131I]YC-I-27]
t

Lookup N=C(N)NCc1ccc(C(=O)NCCCC[C@H](NC(=O)N[C@@H](CCC(=O)O)C(=O)O)C(=O)O)cc1[131I] [[^131I] labeled 7 (PSMA-620)]
f

Lookup O=C(O)CC[C@H](NC(=O)N[C@@H](CCC(=O)NCCc1ccc([211At])cc1)C(=O)O)C(=O)O [[^211At]HS-549]
t
